Target: α-amylase specimen derived from pig pancreas (Sus scrofa)
Construct: purchased Sigma Chemical Company, St. Louis, USA; host or cells: pig pancreas
Assay: Hydrolysis by α-amylase
Format: biochemical
Parameters: unit not given here
Details: α-amylase, 10 mg/ml, pH 6.9, 37° C., 18 hours; HPLC
result type: Saccharide composition of hydrolysate: G3 (maltotriose)
// print number alone

Request: Given OC[C@H]1O[C@H](O[C@H]2O[C@H](CO)[C@@H](O[C@H]3O[C@H](CO)[C@@H](O)[C@H](O)[C@H]3O)[C@H](O)[C@H]2O)[C@H](O)[C@@H](O)[C@@H]1O , respond with its Saccharide composition of hydrolysate: G3 (maltotriose).
Response: 2.3

Request: Given OC[C@H]1O[C@H](O[C@H]2O[C@H](CO)[C@@H](O[C@H]3O[C@H](CO)[C@@H](O[C@H]4O[C@H](CO)[C@@H](O[C@H]5O[C@H](CO)[C@@H](O[C@H]6O[C@H](CO)[C@@H](O[C@H]7O[C@H](CO)[C@@H](O)[C@H](O)[C@H]7O)[C@H](O)[C@H]6O)[C@H](O)[C@H]5O)[C@H](O)[C@H]4O)[C@H](O)[C@H]3O)[C@H](O)[C@H]2O)[C@H](O)[C@@H](O)[C@@H]1O , respond with its Saccharide composition of hydrolysate: G3 (maltotriose).
Response: 35.3

Request: Given OC[C@H]1O[C@H](O[C@H]2O[C@H](CO)[C@@H](O[C@H]3O[C@H](CO)[C@@H](O[C@H]4O[C@H](CO)[C@@H](O[C@H]5O[C@H](CO)[C@@H](O[C@H]6O[C@H](CO)[C@@H](O)[C@H](O)[C@H]6O)[C@H](O)[C@H]5O)[C@H](O)[C@H]4O)[C@H](O)[C@H]3O)[C@H](O)[C@H]2O)[C@H](O)[C@@H](O)[C@@H]1O , respond with its Saccharide composition of hydrolysate: G3 (maltotriose).
Response: 40.4

* * *

Parameter Saccharide composition of hydrolysate: P I: see the listing below.
Target: α-amylase specimen derived from pig pancreas (Sus scrofa, UniProt P00690)
Construct: purchased Sigma Chemical Company, St. Louis, USA; host or cells: pig pancreas
Sequence (P00690 16-511): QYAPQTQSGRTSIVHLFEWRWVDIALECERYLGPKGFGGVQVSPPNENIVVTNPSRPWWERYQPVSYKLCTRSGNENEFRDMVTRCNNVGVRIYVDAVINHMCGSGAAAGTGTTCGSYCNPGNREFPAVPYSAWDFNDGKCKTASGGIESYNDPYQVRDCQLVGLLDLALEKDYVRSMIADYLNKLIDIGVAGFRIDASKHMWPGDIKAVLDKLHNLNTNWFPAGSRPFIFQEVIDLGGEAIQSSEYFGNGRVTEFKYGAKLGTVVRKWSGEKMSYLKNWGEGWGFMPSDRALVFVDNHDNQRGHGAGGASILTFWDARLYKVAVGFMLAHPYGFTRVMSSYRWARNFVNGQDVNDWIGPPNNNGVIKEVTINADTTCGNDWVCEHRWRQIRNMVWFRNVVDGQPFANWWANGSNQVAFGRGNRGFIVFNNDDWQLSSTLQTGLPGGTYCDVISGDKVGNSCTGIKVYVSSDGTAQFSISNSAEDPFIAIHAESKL
Assay: Hydrolysis by α-amylase
Assay type: biochemical
Parameters: unit not given here
Settings: α-amylase, 10 mg/ml, pH 6.9, 37° C., 18 hours; HPLC
// print number alone

These recorded examples may help you get a feel for the data.
OC[C@H]1O[C@H](O[C@H]2O[C@H](CO)[C@@H](O[C@H]3O[C@H](CO)[C@@H](O)[C@H](O)[C@H]3O)[C@H](O)[C@H]2O)[C@H](O)[C@@H](O)[C@@H]1O 97.3
OC[C@H]1O[C@H](O[C@H]2O[C@H](CO)[C@@H](O[C@H]3O[C@H](CO)[C@@H](O[C@H]4O[C@H](CO)[C@@H](O[C@H]5O[C@H](CO)[C@@H](O[C@H]6O[C@H](CO)[C@@H](O)[C@H](O)[C@H]6O)[C@H](O)[C@H]5O)[C@H](O)[C@H]4O)[C@H](O)[C@H]3O)[C@H](O)[C@H]2O)[C@H](O)[C@@H](O)[C@@H]1O 47.2
OC[C@H]1O[C@H](O[C@H]2O[C@H](CO)[C@@H](O[C@H]3O[C@H](CO)[C@@H](O[C@H]4O[C@H](CO)[C@@H](O[C@H]5O[C@H](CO)[C@@H](O)[C@H](O)[C@H]5O)[C@H](O)[C@H]4O)[C@H](O)[C@H]3O)[C@H](O)[C@H]2O)[C@H](O)[C@@H](O)[C@@H]1O 61.0
OC[C@H]1O[C@H](O[C@H]2O[C@H](CO)[C@@H](O[C@H]3O[C@H](CO)[C@@H](O[C@H]4O[C@H](CO)[C@@H](O[C@H]5O[C@H](CO)[C@@H](O[C@H]6O[C@H](CO)[C@@H](O[C@H]7O[C@H](CO)[C@@H](O)[C@H](O)[C@H]7O)[C@H](O)[C@H]6O)[C@H](O)[C@H]5O)[C@H](O)[C@H]4O)[C@H](O)[C@H]3O)[C@H](O)[C@H]2O)[C@H](O)[C@@H](O)[C@@H]1O 10.2

Request: Would you please give the reported Saccharide composition of hydrolysate: P I of OC[C@H]1O[C@H](O[C@H]2O[C@H](CO)[C@@H](O[C@H]3O[C@H](CO)[C@@H](O[C@H]4O[C@H](CO)[C@@H](O)[C@H](O)[C@H]4O)[C@H](O)[C@H]3O)[C@H](O)[C@H]2O)[C@H](O)[C@@H](O)[C@@H]1O with α-amylase specimen derived from pig pancreas (Sus scrofa, UniProt P00690)?
Response: 0

* * *

Parameter Saccharide composition of hydrolysate: G3 (maltotriose): see the listing below.
Target: α-amylase specimen derived from pig pancreas (Sus scrofa)
Construct: purchased Sigma Chemical Company, St. Louis, USA; host or cells: pig pancreas
Test: Hydrolysis by α-amylase
Type: biochemical
Parameters: unit not given here
Settings: α-amylase, 10 mg/ml, pH 6.9, 37° C., 18 hours; HPLC
// print number alone

OC[C@H]1O[C@H](O[C@H]2O[C@H](CO)[C@@H](O[C@H]3O[C@H](CO)[C@@H](O[C@H]4O[C@H](CO)[C@@H](O[C@H]5O[C@H](CO)[C@@H](O)[C@H](O)[C@H]5O)[C@H](O)[C@H]4O)[C@H](O)[C@H]3O)[C@H](O)[C@H]2O)[C@H](O)[C@@H](O)[C@@H]1O 0

Request: Given OC[C@H]1O[C@H](O[C@H]2O[C@H](CO)[C@@H](O[C@H]3O[C@H](CO)[C@@H](O[C@H]4O[C@H](CO)[C@@H](O)[C@H](O)[C@H]4O)[C@H](O)[C@H]3O)[C@H](O)[C@H]2O)[C@H](O)[C@@H](O)[C@@H]1O , respond with its Saccharide composition of hydrolysate: G3 (maltotriose).
Response: 0.4

* * *

Molecular target: α-glucosidase specimen derived from rice (Oryza sativa subsp. japonica)
Construct: purchased Sigma Chemical Company, St. Louis, USA; host or cells: rice
Sequence (Q653V7 34-885): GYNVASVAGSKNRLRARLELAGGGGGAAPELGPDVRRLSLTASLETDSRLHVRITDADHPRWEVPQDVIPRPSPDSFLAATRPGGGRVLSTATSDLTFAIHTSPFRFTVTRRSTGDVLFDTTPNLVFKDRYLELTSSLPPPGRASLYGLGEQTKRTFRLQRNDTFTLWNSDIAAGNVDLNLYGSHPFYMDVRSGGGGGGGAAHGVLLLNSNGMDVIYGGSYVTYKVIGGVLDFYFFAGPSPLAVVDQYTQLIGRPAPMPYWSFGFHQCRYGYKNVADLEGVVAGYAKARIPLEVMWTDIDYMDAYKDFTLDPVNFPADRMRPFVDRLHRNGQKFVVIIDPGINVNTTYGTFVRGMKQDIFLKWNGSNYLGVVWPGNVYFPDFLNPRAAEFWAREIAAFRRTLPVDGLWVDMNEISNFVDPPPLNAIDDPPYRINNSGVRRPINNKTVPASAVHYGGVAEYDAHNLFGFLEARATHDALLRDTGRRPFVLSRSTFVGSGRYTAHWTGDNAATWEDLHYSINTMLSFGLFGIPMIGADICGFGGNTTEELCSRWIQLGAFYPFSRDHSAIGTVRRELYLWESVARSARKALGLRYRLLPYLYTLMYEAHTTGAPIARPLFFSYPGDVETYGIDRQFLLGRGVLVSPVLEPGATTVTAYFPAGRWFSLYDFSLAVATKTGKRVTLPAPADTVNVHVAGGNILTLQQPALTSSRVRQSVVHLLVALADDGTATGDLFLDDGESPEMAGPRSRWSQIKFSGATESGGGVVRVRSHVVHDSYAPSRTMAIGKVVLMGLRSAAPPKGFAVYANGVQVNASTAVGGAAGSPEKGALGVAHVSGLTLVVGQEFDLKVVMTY
Assay: Hydrolysis by α-glucosidase
Format: biochemical
Details: 50 mM acetate buffer pH 4.0, 37° C., 18 hours
result type: Saccharide composition of hydrolysate with α-glucosidase: Other saccharides (%)
# number only, unit % dropped from output

These recorded examples may help you get a feel for the data.
OC[C@H]1O[C@H](O[C@H]2O[C@H](CO)[C@@H](O[C@H]3O[C@H](CO)[C@@H](O[C@H]4O[C@H](CO)[C@@H](O)[C@H](O)[C@H]4O)[C@H](O)[C@H]3O)[C@H](O)[C@H]2O)[C@H](O)[C@@H](O)[C@@H]1O 0.3
OC[C@H]1O[C@H](O[C@H]2O[C@H](CO)[C@@H](O[C@H]3O[C@H](CO)[C@@H](O[C@H]4O[C@H](CO)[C@@H](O[C@H]5O[C@H](CO)[C@@H](O[C@H]6O[C@H](CO)[C@@H](O[C@H]7O[C@H](CO)[C@@H](O)[C@H](O)[C@H]7O)[C@H](O)[C@H]6O)[C@H](O)[C@H]5O)[C@H](O)[C@H]4O)[C@H](O)[C@H]3O)[C@H](O)[C@H]2O)[C@H](O)[C@@H](O)[C@@H]1O 0.3
OC[C@H]1O[C@H](O[C@H]2O[C@H](CO)[C@@H](O[C@H]3O[C@H](CO)[C@@H](O)[C@H](O)[C@H]3O)[C@H](O)[C@H]2O)[C@H](O)[C@@H](O)[C@@H]1O 0.5
OC[C@H]1O[C@H](O[C@H]2O[C@H](CO)[C@@H](O[C@H]3O[C@H](CO)[C@@H](O[C@H]4O[C@H](CO)[C@@H](O[C@H]5O[C@H](CO)[C@@H](O[C@H]6O[C@H](CO)[C@@H](O)[C@H](O)[C@H]6O)[C@H](O)[C@H]5O)[C@H](O)[C@H]4O)[C@H](O)[C@H]3O)[C@H](O)[C@H]2O)[C@H](O)[C@@H](O)[C@@H]1O 0.3

Next compound, Saccharide composition of hydrolysate with α-glucosidase: Other saccharides to be filled in.
Request: Given OC[C@H]1O[C@H](O[C@H]2O[C@H](CO)[C@@H](O[C@H]3O[C@H](CO)[C@@H](O[C@H]4O[C@H](CO)[C@@H](O[C@H]5O[C@H](CO)[C@@H](O)[C@H](O)[C@H]5O)[C@H](O)[C@H]4O)[C@H](O)[C@H]3O)[C@H](O)[C@H]2O)[C@H](O)[C@@H](O)[C@@H]1O , respond with its Saccharide composition of hydrolysate with α-glucosidase: Other saccharides.
Response: 0.2

* * *

Tested on: rat intestinal acetone powder
Assay: Hydrolysis by rat intestinal acetone powder
Assay type: in vitro ADME
Settings: 50 mM maleate buffer pH 6.0, 37° C., 18 hours
Parameter Saccharide composition of hydrolysate with rat intestinal acetone powder: Glucose: see the listing below.
# number only, unit % dropped from output

OC[C@H]1O[C@H](O[C@H]2O[C@H](CO)[C@@H](O[C@H]3O[C@H](CO)[C@@H](O[C@H]4O[C@H](CO)[C@@H](O)[C@H](O)[C@H]4O)[C@H](O)[C@H]3O)[C@H](O)[C@H]2O)[C@H](O)[C@@H](O)[C@@H]1O 52.5

Next compound, Saccharide composition of hydrolysate with rat intestinal acetone powder: Glucose to be filled in.
Request: Given OC[C@H]1O[C@H](O[C@H]2O[C@H](CO)[C@@H](O[C@H]3O[C@H](CO)[C@@H](O)[C@H](O)[C@H]3O)[C@H](O)[C@H]2O)[C@H](O)[C@@H](O)[C@@H]1O , respond with its Saccharide composition of hydrolysate with rat intestinal acetone powder: Glucose.
Response: 37.2
